Test: Gelatinizing ability in aqueous solutions of varying pH (gel formation observed)
Format: physicochemical
Parameters: key: the formation of gel is indicated by “G”; partial formation of gel is indicated by “LG”; unchanged aqueous solution is indicated by “S”; the formation of a precipitate is indicated by “P”; insolubility is indicated by “I”
Details: 10 mg compound in 0.5 ml buffer solution pH 918; 60° C. or more, ultrasound one hour, then room temperature
value_type: formation of a gel, pH 918

molecule	result_value
Cc1cn([C@H]2C[C@H](OP(=O)(O)OCCCCCCCCCCCCOP(=O)(O)O[C@H]3C[C@H](n4cc(C)c(=O)[nH]c4=O)O[C@@H]3CO)[C@@H](CO)O2)c(=O)[nH]c1=O [Compound 1]	S
Cc1cn([C@H]2C[C@H](OP(=O)(O)OCCCCCCCCCCCCCOP(=O)(O)O[C@H]3C[C@H](n4cc(C)c(=O)[nH]c4=O)O[C@@H]3CO)[C@@H](CO)O2)c(=O)[nH]c1=O [Compound 2]	S
Cc1cn(C2CC(OP(=O)(O)OCCCCCCCCCCCCCCCOP(=O)(O)OC3CC(n4cc(C)c(=O)[nH]c4=O)OC3CO)C(CO)O2)c(=O)[nH]c1=O (stereo not drawn) [Compound 4]	S

* * *

Assay: Gelatinizing ability in aqueous solutions of varying pH (gel formation observed)
Type: physicochemical
Set-up: key: the formation of gel is indicated by “G”; partial formation of gel is indicated by “LG”; unchanged aqueous solution is indicated by “S”; the formation of a precipitate is indicated by “P”; insolubility is indicated by “I”
Conditions: 10 mg compound in 0.5 ml buffer solution pH 918; 60° C. or more, ultrasound one hour, then room temperature

compound	formation of a gel, pH 918
Cc1cn(C2CC(OP(=O)(O)OCCCCCCCCCCCCCCOP(=O)(O)OC3CC(n4cc(C)c(=O)[nH]c4=O)OC3CO)C(CO)O2)c(=O)[nH]c1=O (stereo not shown) [Compound 3]	S
Cc1cn([C@H]2C[C@H](OP(=O)(O)OCCCCCCCCCCCCCCCCCCOP(=O)(O)O[C@H]3C[C@H](n4cc(C)c(=O)[nH]c4=O)O[C@@H]3CO)[C@@H](CO)O2)c(=O)[nH]c1=O [Compound 6]	S
Cc1cn([C@H]2C[C@H](OP(=O)(O)OCCCCCCCCCCCCCCCCOP(=O)(O)O[C@H]3C[C@H](n4cc(C)c(=O)[nH]c4=O)O[C@@H]3CO)[C@@H](CO)O2)c(=O)[nH]c1=O [Compound 5]	S
Cc1cn([C@H]2C[C@H](OP(=O)(O)OCCCCCCCCCCCCCCCCCCCCOP(=O)(O)O[C@H]3C[C@H](n4cc(C)c(=O)[nH]c4=O)O[C@@H]3CO)[C@@H](CO)O2)c(=O)[nH]c1=O [Compound 7]	G

* * *

Assay: Gelatinizing ability in aqueous solutions of varying pH (gel formation observed)
Type: physicochemical
Set-up: key: the formation of gel is indicated by “G”; partial formation of gel is indicated by “LG”; unchanged aqueous solution is indicated by “S”; the formation of a precipitate is indicated by “P”; insolubility is indicated by “I”
Settings: 10 mg compound in 0.5 ml buffer solution pH 401; 60° C. or more, ultrasound one hour, then room temperature
value_type: formation of a gel, pH 401

compound	formation of a gel, pH 401
Cc1cn([C@H]2C[C@H](OP(=O)(O)OCCCCCCCCCCCCCCCCOP(=O)(O)O[C@H]3C[C@H](n4cc(C)c(=O)[nH]c4=O)O[C@@H]3CO)[C@@H](CO)O2)c(=O)[nH]c1=O	S
Cc1cn(C2CC(OP(=O)(O)OCCCCCCCCCCCCCCOP(=O)(O)OC3CC(n4cc(C)c(=O)[nH]c4=O)OC3CO)C(CO)O2)c(=O)[nH]c1=O (stereo not shown)	S
Cc1cn([C@H]2C[C@H](OP(=O)(O)OCCCCCCCCCCCCCCCCCCCCOP(=O)(O)O[C@H]3C[C@H](n4cc(C)c(=O)[nH]c4=O)O[C@@H]3CO)[C@@H](CO)O2)c(=O)[nH]c1=O	LG
Cc1cn(C2CC(OP(=O)(O)OCCCCCCCCCCCCCCCOP(=O)(O)OC3CC(n4cc(C)c(=O)[nH]c4=O)OC3CO)C(CO)O2)c(=O)[nH]c1=O (stereo not shown)	S
Cc1cn([C@H]2C[C@H](OP(=O)(O)OCCCCCCCCCCCCCOP(=O)(O)O[C@H]3C[C@H](n4cc(C)c(=O)[nH]c4=O)O[C@@H]3CO)[C@@H](CO)O2)c(=O)[nH]c1=O	S

Lookup result for Cc1cn([C@H]2C[C@H](OP(=O)(O)OCCCCCCCCCCCCCCCCCCOP(=O)(O)O[C@H]3C[C@H](n4cc(C)c(=O)[nH]c4=O)O[C@@H]3CO)[C@@H](CO)O2)c(=O)[nH]c1=O ; measured formation of a gel, pH 401: P

Lookup result for Cc1cn([C@H]2C[C@H](OP(=O)(O)OCCCCCCCCCCCCOP(=O)(O)O[C@H]3C[C@H](n4cc(C)c(=O)[nH]c4=O)O[C@@H]3CO)[C@@H](CO)O2)c(=O)[nH]c1=O ; measured formation of a gel, pH 401: S
